Assay: Plasma protein binding in human at 1 to 91 ug/ml by DCC adsorption method
Format: ADME, cell-free
Conditions: read-out: PB (converted)
reported metric: fraction unbound
Lab note: jot the number down without any unit.

Give the reported value of fraction unbound for this record: CN[C@H](CC(C)C)C(=O)N[C@H]1C(=O)N[C@@H](CC(N)=O)C(=O)N[C@H]2C(=O)N[C@H]3C(=O)N[C@H](C(=O)N[C@H](C(=O)O)c4cc(O)cc(O)c4-c4cc3ccc4O)[C@H](O[C@H]3C[C@](C)(N)[C@@H](O)[C@H](C)O3)c3ccc(c(Cl)c3)Oc3cc2cc(c3O[C@@H]2O[C@H](CO)[C@@H](O)[C@H](O)[C@H]2O[C@H]2C[C@](C)(NCc3ccc(-c4ccc(Cl)cc4)cc3)[C@@H](O)[C@H](C)O2)Oc2ccc(cc2Cl)[C@H]1O
0.143

----------
// fraction unbound lookup, one value per entry
Assay: Protein binding in dog serum by broth microdilution method
Format: ADME, cell-free, Canis lupus familiaris
Details: read-out: PB (converted)

CCCCCCCCCC(=O)N[C@@H](Cc1c[nH]c2ccccc12)C(=O)N[C@H](CC(N)=O)C(=O)N[C@@H](CC(=O)O)C(=O)N[C@@H]1C(=O)NCC(=O)N[C@@H](CCCN)C(=O)N[C@@H](CC(=O)O)C(=O)N[C@H](C)C(=O)N[C@@H](CC(=O)O)C(=O)NCC(=O)N[C@H](CO)C(=O)N[C@@H]([C@H](C)CC(=O)O)C(=O)N[C@@H](CC(=O)c2ccccc2N)C(=O)O[C@@H]1C; 0.255

API: the following record is the query input.
Please list fraction unbound recorded for the compound CO/N=C(\C(=O)N[C@@H]1C(=O)N2C(C(=O)O)=C(CSc3nc(=O)c(O)nn3C)CS[C@H]12)c1csc(N)n1 [CEFTRIAXONE]
0.791

----------
Experiment: Plasma protein binding in human by broth microdilution method
Assay type: ADME, cell-free
Settings: read-out: PPB (converted)
reported metric: fraction unbound
Answer field: number only, no words.

Give the reported fraction unbound for this compound. CN[C@H](CC(C)C)C(=O)N[C@H]1C(=O)N[C@@H](CC(N)=O)C(=O)N[C@H]2C(=O)N[C@H]3C(=O)N[C@H](C(=O)N[C@H](C(=O)O)c4cc(O)cc(O)c4-c4cc3ccc4O)[C@H](O[C@H]3C[C@](C)(N)[C@@H](O)[C@H](C)O3)c3ccc(c(Cl)c3)Oc3cc2cc(c3O[C@@H]2O[C@H](CO)[C@@H](O)[C@H](O)[C@H]2O[C@H]2C[C@](C)(NCc3ccc(-c4ccc(Cl)cc4)cc3)[C@@H](O)[C@H](C)O2)Oc2ccc(cc2Cl)[C@H]1O
0.125

----------
// reported fraction unbound for each item listed
Test: Protein binding in rat serum by broth microdilution method
Format: ADME, cell-free
Conditions: read-out: PB (converted)
Returns: the value as a bare number; no unit string appended.

CCCCCCCCCC(=O)N[C@@H](Cc1c[nH]c2ccccc12)C(=O)N[C@H](CC(N)=O)C(=O)N[C@@H](CC(=O)O)C(=O)N[C@@H]1C(=O)NCC(=O)N[C@@H](CCCN)C(=O)N[C@@H](CC(=O)O)C(=O)N[C@H](C)C(=O)N[C@@H](CC(=O)O)C(=O)NCC(=O)N[C@H](CO)C(=O)N[C@@H]([C@H](C)CC(=O)O)C(=O)N[C@@H](CC(=O)c2ccccc2N)C(=O)O[C@@H]1C; 0.344

Read off the recorded fraction unbound for CO/N=C(\C(=O)N[C@@H]1C(=O)N2C(C(=O)O)=C(CSc3nc(=O)c(O)nn3C)CS[C@H]12)c1csc(N)n1 [CEFTRIAXONE]
0.66
